Where these numbers come from: patent US10986838B2

- System: Abutilon theophrasti (ABUTH)
- procedureDetails: Post-emergence herbicidal activity (B2)
- Format: in vivo
- setupConditions: Test B2b, 1000 g/ha, evaluated after 13 days, 5=total damage to plant, 0=no damage to plant
readoutKind: ABUTH damage score
Write the number on its own, no unit after it.

These solved cases illustrate the format of a correct answer.
{"molecule": "CNc1ccc(-c2cncc(C(F)(F)F)c2)nc1C(F)(F)F", "ABUTH damage score": 0}
{"molecule": "CNc1ccc(-c2cncc(F)c2)nc1C(F)(F)F", "ABUTH damage score": 1}
{"molecule": "COC(=O)C(C)Nc1ccc(-c2cncc(F)c2)nc1C(F)(F)F (stereo not shown)", "ABUTH damage score": 1}
{"molecule": "CNc1ccc(-c2cccnc2)nc1C(F)(F)F", "ABUTH damage score": 1}
{"molecule": "Fc1cncc(-c2ccc(NCc3ccc(F)cc3F)c(C(F)(F)F)n2)c1", "ABUTH damage score": 0}
{"molecule": "CC#CCNc1ccc(-c2cncc(F)c2)nc1C(F)(F)F", "ABUTH damage score": 2}
{"molecule": "N#Cc1nc(-c2cncc(F)c2)ccc1N", "ABUTH damage score": 1}
{"molecule": "Cc1nc(-c2cncc(F)c2)ccc1N", "ABUTH damage score": 0}

get_value(item= Fc1cncc(-c2ccc(NCc3ccc(Cl)cc3)c(C(F)(F)F)n2)c1 , readout=ABUTH damage score) returns 0

Reported ABUTH damage score for Nc1ccc(-c2cncc(F)c2)nc1C(F)(F)F was 1
